Target: STAT3 Glu594Ala mutant (Homo sapiens, UniProt P40763, E594A)
Sequence (P40763 whole entry E594A): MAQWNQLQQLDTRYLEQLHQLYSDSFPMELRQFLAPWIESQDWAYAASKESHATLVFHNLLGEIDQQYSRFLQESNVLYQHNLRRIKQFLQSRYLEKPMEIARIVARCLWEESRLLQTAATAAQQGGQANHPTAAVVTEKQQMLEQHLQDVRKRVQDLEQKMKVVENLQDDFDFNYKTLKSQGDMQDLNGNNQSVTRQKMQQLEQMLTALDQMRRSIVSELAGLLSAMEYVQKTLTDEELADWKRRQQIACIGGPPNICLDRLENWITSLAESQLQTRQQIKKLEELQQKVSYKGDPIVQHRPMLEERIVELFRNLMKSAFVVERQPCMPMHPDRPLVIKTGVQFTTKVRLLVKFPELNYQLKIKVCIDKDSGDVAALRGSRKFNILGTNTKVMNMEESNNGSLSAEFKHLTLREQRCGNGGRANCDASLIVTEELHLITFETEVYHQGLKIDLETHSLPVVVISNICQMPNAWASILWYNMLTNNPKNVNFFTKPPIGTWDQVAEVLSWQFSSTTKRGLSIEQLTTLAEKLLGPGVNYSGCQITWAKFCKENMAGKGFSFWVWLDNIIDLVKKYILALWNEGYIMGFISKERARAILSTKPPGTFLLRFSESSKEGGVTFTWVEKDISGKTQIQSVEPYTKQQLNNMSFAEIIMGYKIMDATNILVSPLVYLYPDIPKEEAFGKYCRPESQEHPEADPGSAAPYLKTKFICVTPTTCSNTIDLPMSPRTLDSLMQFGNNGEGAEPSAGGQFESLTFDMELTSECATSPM
Experiment: FP assay against STAT3 Glu594Ala mutant
Conditions: 2 h incubation, 1 mM DTT, read-out: app. IC50 against STAT3 Glu594Ala mutant
measure name: pIC50
Give bare numbers, as −log10 of the molar value.

input: Recorded pIC50 for CC(C)(C)c1ccc2occ(/C=N/NC(=O)c3cccnc3)c(=O)c2c1 , please?
output: 4.57

---

Answer each item with its documented inhibition at 80 µM.
Biological target: STAT3 SH2 domain (Homo sapiens)
Sequence (P40763 whole entry, the tested form may be a part): as the sequence (P40763 whole entry E594A) above, with A594E counted along it
Test: FP-based competitive binding assay, STAT3 SH2 domain
Details: at 80 µM, mean ± s.d., three experiments
Numbers only, in %.

The following compounds have reported results that may help.
mol smiles | inhibition at 80 µM [%]
CCC(C)(C)c1ccc2occ(/C=N/NC(=O)c3cccnc3)c(=O)c2c1 | 45
Cc1ccc2occ(/C=N/NC(=O)c3cccnc3)c(=O)c2c1 | 40
COc1cccc(C(=O)N/N=C/c2coc3ccc(C(C)(C)C)cc3c2=O)c1 | 42
CC(C)(C)c1ccc2occ(/C=N/NCc3ccccc3)c(=O)c2c1 | 9
CC(C)(C)c1ccc2occ(/C=N/NS(=O)(=O)c3ccccc3)c(=O)c2c1 | 4

Provide each entry's inhibition at 80 µM from the list below.
1. O=C(N/N=C/c1coc2ccc([N+](=O)[O-])cc2c1=O)c1cccnc1
2. CC(C)(C)c1ccc2occ(/C=N/NC(=O)c3ccc(F)cc3)c(=O)c2c1

output:
14
31

---

Molecular target: STAT3 SH2 domain (Homo sapiens)
Assay: FP-based competitive binding assay, STAT3 SH2 domain
Conditions: after 9 h, read-out: apparent IC50 against wild-type STAT3 after 9 h
measure name: IC50 (µM)
One number for each entry, in µM.

input: Recorded IC50 for CC(C)(C)c1ccc2occ(/C=N/NC(=O)c3cccnc3)c(=O)c2c1 , please?
output: 2.8
